outcomeMeasure: melting point

Incoming: Query (compound): CC(=O)Nc1nc2ccc(-c3ccc(F)c(Cl)c3)cc2s1 ; field requested: melting point
Outgoing: 166 to 167 °C

Incoming: Query (compound): COc1ccc(-c2ccc3nc(NC(C)=O)sc3c2)cc1 ; field requested: melting point
Outgoing: 218 to 220 °C

Incoming: Query (compound): CC(=O)Nc1nc2ccc(-c3cc(C)cc(C)c3)cc2s1 ; field requested: melting point
Outgoing: 205 to 207 °C

Incoming: Query (compound): CC(=O)Nc1nc2ccc(-c3ccc(C)cc3)cc2s1 ; field requested: melting point
Outgoing: 205 to 207 °C

###

- targetEntity: UniProt:P07374
- Sequence (P07374 whole entry, looked up): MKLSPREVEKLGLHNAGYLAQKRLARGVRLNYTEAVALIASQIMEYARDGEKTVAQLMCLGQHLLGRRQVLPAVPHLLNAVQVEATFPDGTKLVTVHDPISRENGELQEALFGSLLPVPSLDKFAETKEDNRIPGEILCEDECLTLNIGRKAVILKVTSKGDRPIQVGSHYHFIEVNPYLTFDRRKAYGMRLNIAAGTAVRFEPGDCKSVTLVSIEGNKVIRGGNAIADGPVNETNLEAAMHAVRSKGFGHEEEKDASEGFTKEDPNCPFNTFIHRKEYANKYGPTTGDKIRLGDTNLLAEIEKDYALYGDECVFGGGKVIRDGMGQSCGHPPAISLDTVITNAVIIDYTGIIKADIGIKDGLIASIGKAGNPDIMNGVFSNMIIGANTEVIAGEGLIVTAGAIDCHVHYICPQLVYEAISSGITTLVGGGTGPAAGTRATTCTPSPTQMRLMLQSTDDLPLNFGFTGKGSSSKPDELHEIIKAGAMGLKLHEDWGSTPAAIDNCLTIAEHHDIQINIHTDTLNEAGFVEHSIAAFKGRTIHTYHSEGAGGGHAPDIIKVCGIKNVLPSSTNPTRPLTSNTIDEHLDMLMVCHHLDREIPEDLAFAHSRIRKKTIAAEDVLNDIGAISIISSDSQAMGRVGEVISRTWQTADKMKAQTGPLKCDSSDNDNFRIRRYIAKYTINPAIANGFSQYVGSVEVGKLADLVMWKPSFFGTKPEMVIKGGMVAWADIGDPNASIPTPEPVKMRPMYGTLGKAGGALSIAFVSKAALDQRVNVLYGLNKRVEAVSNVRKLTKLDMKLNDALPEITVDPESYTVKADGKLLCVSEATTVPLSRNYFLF
- protocolDetails: biochemical
- Assay type: biochemical
- conditionParameters: read-out: % Inhibition at 15 µg/mL, 15 µg/mL; mean ± SD of three measurements
outcomeMeasure: inhibition at 15 µg/mL (%)
// note: answer is a bare numeric in %

Incoming: Query (compound): COc1ccc(-c2ccc3nc(NC(C)=O)sc3c2)cc1 ; field requested: inhibition at 15 µg/mL
Outgoing: 46.5

Incoming: Query (compound): CC(=O)Nc1nc2ccc(-c3cc(C(F)(F)F)cc(C(F)(F)F)c3)cc2s1 ; field requested: inhibition at 15 µg/mL
Outgoing: 46.1

Incoming: Query (compound): CC(=O)Nc1nc2ccc(-c3ccc(F)c(Cl)c3)cc2s1 ; field requested: inhibition at 15 µg/mL
Outgoing: 42

Incoming: Query (compound): CC(=O)Nc1nc2ccc(-c3ccccc3)cc2s1 ; field requested: inhibition at 15 µg/mL
Outgoing: 44

Incoming: Query (compound): CC(=O)Nc1nc2ccc(-c3cc(C#N)cc(C(F)(F)F)c3)cc2s1 ; field requested: inhibition at 15 µg/mL
Outgoing: 42

Incoming: Query (compound): CC(=O)Nc1nc2ccc(-c3cc(C)cc(C)c3)cc2s1 ; field requested: inhibition at 15 µg/mL
Outgoing: 43.6

Incoming: Query (compound): CC(=O)Nc1nc2ccc(-c3ccc(C)cc3)cc2s1 ; field requested: inhibition at 15 µg/mL
Outgoing: 47

Incoming: Query (compound): CC(=O)Nc1nc2ccc(-c3ccc(C)s3)cc2s1 ; field requested: inhibition at 15 µg/mL
Outgoing: 46

###

- targetEntity: UniProt:P07374
- protocolDetails: biochemical
- Assay type: biochemical
- conditionParameters: read-out: % Inhibition at 40 µg/mL, 40 µg/mL; mean ± SD of three measurements
outcomeMeasure: inhibition at 40 µg/mL (%)
// note: answer is a bare numeric in %

Incoming: Query (compound): CC(=O)Nc1nc2ccc(-c3ccc(C)s3)cc2s1 [Compound 3e] ; field requested: inhibition at 40 µg/mL
Outgoing: 87

Incoming: Query (compound): COc1ccc(-c2ccc3nc(NC(C)=O)sc3c2)cc1 [Compound 3d] ; field requested: inhibition at 40 µg/mL
Outgoing: 88.5

Incoming: Query (compound): CC(=O)Nc1nc2ccc(-c3cc(C(F)(F)F)cc(C(F)(F)F)c3)cc2s1 [Compound 3c] ; field requested: inhibition at 40 µg/mL
Outgoing: 90.3

Incoming: Query (compound): CC(=O)Nc1nc2ccc(-c3ccc(F)c(Cl)c3)cc2s1 [Compound 3g] ; field requested: inhibition at 40 µg/mL
Outgoing: 87

Incoming: Query (compound): CC(=O)Nc1nc2ccc(-c3cc(C#N)cc(C(F)(F)F)c3)cc2s1 [Compound 3f] ; field requested: inhibition at 40 µg/mL
Outgoing: 87.5

Incoming: Query (compound): CC(=O)Nc1nc2ccc(-c3ccccc3)cc2s1 [Compound 3a] ; field requested: inhibition at 40 µg/mL
Outgoing: 83.9

Incoming: Query (compound): CC(=O)Nc1nc2ccc(-c3cc(C)cc(C)c3)cc2s1 [Compound 3h] ; field requested: inhibition at 40 µg/mL
Outgoing: 90.1

Incoming: Query (compound): CC(=O)Nc1nc2ccc(-c3ccc(C)cc3)cc2s1 [Compound 3b] ; field requested: inhibition at 40 µg/mL
Outgoing: 90.5
